For each of the compounds below, state its T/C.
# Tested on: CD2F1 mice, L1210 leukemia ip, survival T/C
# method-description: NCI In Vivo Anticancer Drug Screen. Data for tumor model L1210 Leukemia (intraperitoneal) in CD2F1 (CDF1) mice
# recorded-conditions: endpoint: mean survival time; dose: 200.0 mg/kg/injection; schedule: Q01DX009 (ip); vehicle: saline with Tween-80; higher = longer survival
Inconclusive results and toxic doses are left out.

Example entries and their recorded answers appear below.
C=CCC(O)CCCC (configuration not stated) :: 103 % of control
O=C1c2cc(Cl)ccc2-c2c(Cl)cc(Cl)cc21 :: 89 % of control
CCOC(=O)Nc1c(C)noc1NC(C)=O :: 95 % of control
O=C(OCc1ccccc1)C1CC1 :: 93 % of control
CCCCC/C(C)=C(\C)c1cc(OC)cc(OC)c1 :: 106 % of control

Batch of 2 compounds: report T/C for each.
1. NC(=O)C(Cl)(Cl)Cl
2. c1ccc(NSc2ccccc2)cc1

Response:
1. 104 % of control
2. 96 % of control

====

For each of the molecules below, state its T/C.
# Test system: CD2F1 mice, L1210 leukemia ip, survival T/C
# method-description: NCI In Vivo Anticancer Drug Screen. Data for tumor model L1210 Leukemia (intraperitoneal) in CD2F1 (CDF1) mice
# recorded-conditions: endpoint: mean survival time; dose: 100.0 mg/kg/injection; schedule: Q01DX009 (ip); vehicle: other; higher = longer survival
Inconclusive results and toxic doses are left out.

Cc1ccc(S(=O)(=O)OCC2CC3CCC2C3)cc1 (stereo not drawn) :: 102 % of control

Batch of 2 molecules: report T/C for each.
1. CNC(=S)NNc1ccc(Cl)cc1
2. CC(=O)OC1=C(C)C(c2ccc(C)cc2)OC1=O (stereo not drawn)

Response:
1. 104 % of control
2. 104 % of control

====

For each of the molecules below, state its T/C.
# Test system: CD2F1 mice, L1210 leukemia ip, survival T/C
# method-description: NCI In Vivo Anticancer Drug Screen. Data for tumor model L1210 Leukemia (intraperitoneal) in CD2F1 (CDF1) mice
# recorded-conditions: endpoint: mean survival time; dose: 100.0 mg/kg/injection; schedule: Q01DX009 (ip); vehicle: saline; higher = longer survival
Toxic doses and inconclusive results are not listed.

Example entries and their recorded answers appear below.
NNC(=O)CCCO :: 102 % of control
C=C1C(=O)OC2CCCCCCC12 (centres undefined) :: 97 % of control
C[S+](C)C :: 104 % of control

Recorded result, CC(C)=CC1C(C(=O)OCc2ccc(C)cc2C)C1(C)C (centres undefined) , T/C: 96 % of control

====

# Test system: CD2F1 mice, L1210 leukemia ip, survival T/C
# method-description: NCI In Vivo Anticancer Drug Screen. Data for tumor model L1210 Leukemia (intraperitoneal) in CD2F1 (CDF1) mice
# recorded-conditions: endpoint: mean survival time; dose: 200.0 mg/kg/injection; schedule: Q01DX001 (ip); vehicle: saline with Tween-80; higher = longer survival
Inconclusive results and toxic doses are left out.
reported-endpoint: T/C

O=[N+]([O-])c1ccc(Sc2ccc(Br)cc2)cc1 :: 106 % of control
CCCCCCCCCCCCCCCCOc1ccc(OCCCCCCCCCCCCCCC)cc1 :: 89 % of control
CC(C)(C)N :: 97 % of control
CC(=O)Nc1cc2ccccc2c2ccc3ccccc3c12 :: 93 % of control
CN(C)c1ccc2c(c1)Oc1cc(N(C)C)ccc1C21OC(=O)c2ccccc21 :: 101 % of control
CC1=C/C(=N/Nc2ccc([N+](=O)[O-])cc2[N+](=O)[O-])CC(C)(C)C1 :: 90 % of control
COC(=O)C(Cc1c[nH]c2ccccc12)NC(=O)C(Cc1c[nH]c2ccccc12)NC(=O)OC(C)(C)C (stereo not drawn) :: 96 % of control
O=C(O)C1CC[N-]CC1.O=C(O)C1CC[N-]CC1.[Cl][Pt+2][Cl] :: 110 % of control
COc1ccc(C(=O)OCC(=O)O)cc1 :: 102 % of control
O=S(=O)(c1ccc(N2CCOCC2)cc1)c1ccnc2cc(Cl)ccc12 :: 101 % of control

Batch of 3 molecules: report T/C for each.
1. CC(=O)NC(C=O)C(O)C1OC(c2ccccc2)OCC1O (stereo not drawn)
2. O=[N+]([O-])c1ccc2[nH]ncc2c1
3. Cc1c2c(cc3c1CCC1(C)C(C(C)CCC(C)C(C)C)CC(O)C31O)CCCC2 (stereo not drawn)

Response:
1. 97 % of control
2. 92 % of control
3. 92 % of control
